System: M. suipneumoniae Str. 11
TEST: MIC against mycoplasma in vitro
Assay type: cell-based
PROTOCOL_CONDITIONS: Mesomycoplasma hyopneumoniae, 144 h; M. suipneumoniae Str. 11; 6 days, 37° C.; read-out: MIC
Exercise: state measured MIC for each of the compounds provided.
The reply should be a number in µg/mL, with the unit left off.

Using the record for C/C(=C\c1ncc(-c2ccc([S+](C)[O-])cc2)o1)C[C@@H]1OC[C@H](C[C@@H]2O[C@H]2[C@@H](C)[C@H](C)O)[C@@H](O)[C@H]1O (some centres unmarked) , report its MIC.
0.1

Using the record for C/C(=C\c1ncc(-c2cccc([S+](C)[O-])c2)o1)C[C@@H]1OC[C@H](C[C@@H]2O[C@H]2[C@@H](C)[C@H](C)O)[C@@H](O)[C@H]1O (some centres unmarked) , report its MIC.
0.5

Using the record for `C/C(=C\c1ncc(CCCCCCCC(=O)O)o1)C[C@@H]1OC[C@H](C[C@@H]2O[C@H]2[C@@H](C)[C@H](C)O)[C@@H](O)[C@H]1O` , report its MIC.
10

Using the record for `C/C(=C\c1ncc(-c2ccccc2)s1)C[C@@H]1OC[C@H](C[C@@H]2O[C@H]2[C@@H](C)[C@H](C)O)[C@@H](O)[C@H]1O` , report its MIC.
10

Using the record for `CSc1cccc(-c2cnc(/C=C(\C)C[C@@H]3OC[C@H](C[C@@H]4O[C@H]4[C@@H](C)[C@H](C)O)[C@@H](O)[C@H]3O)o2)c1` , report its MIC.
0.5

Using the record for `C/C(=C\c1cc(-c2ccccc2)no1)C[C@@H]1OC[C@H](C[C@@H]2O[C@H]2[C@@H](C)[C@H](C)O)[C@@H](O)[C@H]1O` , report its MIC.
5

Using the record for `C/C(=C\c1ncc(-c2ccc(CO)cc2)o1)C[C@@H]1OC[C@H](C[C@@H]2O[C@H]2[C@@H](C)[C@H](C)O)[C@@H](O)[C@H]1O` , report its MIC.
0.1

Using the record for `C/C(=C\c1ncc(Cc2ccccc2)o1)C[C@@H]1OC[C@H](C[C@@H]2O[C@H]2[C@@H](C)[C@H](C)O)[C@@H](O)[C@H]1O` , report its MIC.
5

Using the record for `C/C(=C/c1ncc(-c2ccccc2)o1)C[C@@H]1OC[C@H](C[C@@H]2O[C@H]2[C@@H](C)[C@H](C)O)[C@@H](O)[C@H]1O` , report its MIC.
10

====

System: M. bovigenitalium ATCC 14173
TEST: MIC against mycoplasma in vitro
Assay type: cell-based
PROTOCOL_CONDITIONS: 144 h
Exercise: state measured log10 MIC for each of the compounds provided.
In plain terms, each number is the log10 of measured MIC in µg/mL.

Using the record for C/C(=C\c1ncc(C)o1)C[C@@H]1OC[C@H](C[C@@H]2O[C@H]2[C@@H](C)[C@H](C)O)[C@@H](O)[C@H]1O [Example 14, 5-Methyl-2-(1-normon-2-yl) oxazole A] , report its log10 MIC.
-1.00

Using the record for C/C(=C\c1ncc(-c2ccc(S(=O)(=O)N(C)C)cc2)o1)C[C@@H]1OC[C@H](C[C@@H]2O[C@H]2[C@@H](C)[C@H](C)O)[C@@H](O)[C@H]1O [Example 24] , report its log10 MIC.
-1.00

Using the record for C/C(=C\c1ncc(Cc2ccccc2)o1)C[C@@H]1OC[C@H](C[C@@H]2O[C@H]2[C@@H](C)[C@H](C)O)[C@@H](O)[C@H]1O [Example 27, 5-Benzyl-2-(1-normon-2-yl)oxazole A] , report its log10 MIC.
-0.60

Using the record for C/C(=C\c1ncc(-c2cccc([S+](C)[O-])c2)o1)C[C@@H]1OC[C@H](C[C@@H]2O[C@H]2[C@@H](C)[C@H](C)O)[C@@H](O)[C@H]1O (some centres unmarked) [Example 25] , report its log10 MIC.
-0.60

Using the record for C/C(=C\c1ncc(-c2ccc(S(C)(=O)=O)cc2)o1)C[C@@H]1OC[C@H](C[C@@H]2O[C@H]2[C@@H](C)[C@H](C)O)[C@@H](O)[C@H]1O [Example 10] , report its log10 MIC.
-1.60

Using the record for C/C(=C\c1ncc(-c2cccc(C#N)c2)o1)C[C@@H]1OC[C@H](C[C@@H]2O[C@H]2[C@@H](C)[C@H](C)O)[C@@H](O)[C@H]1O [Example 5] , report its log10 MIC.
-1.60

Using the record for C/C(=C\c1ncc(-c2ccc(C=O)cc2)o1)C[C@@H]1OC[C@H](C[C@@H]2O[C@H]2[C@@H](C)[C@H](C)O)[C@@H](O)[C@H]1O [Example 15] , report its log10 MIC.
-1.30

Using the record for CSc1cccc(-c2cnc(/C=C(\C)C[C@@H]3OC[C@H](C[C@@H]4O[C@H]4[C@@H](C)[C@H](C)O)[C@@H](O)[C@H]3O)o2)c1 [Example 22] , report its log10 MIC.
-1.00

Using the record for C/C(=C\c1ncc(-c2cccc([N+](=O)[O-])c2)o1)C[C@@H]1OC[C@H](C[C@@H]2O[C@H]2[C@@H](C)[C@H](C)O)[C@@H](O)[C@H]1O [Example 6] , report its log10 MIC.
-1.30

Using the record for C/C(=C\c1ncc(-c2ccccc2[N+](=O)[O-])o1)C[C@@H]1OC[C@H](C[C@@H]2O[C@H]2[C@@H](C)[C@H](C)O)[C@@H](O)[C@H]1O [Example 26] , report its log10 MIC.
-0.60

Using the record for C/C(=C\c1ncc(-c2ccccc2)s1)C[C@@H]1OC[C@H](C[C@@H]2O[C@H]2[C@@H](C)[C@H](C)O)[C@@H](O)[C@H]1O [Example 29, 2-(1-Normon-2-yl)-5-phenylthiazole A] , report its log10 MIC.
0.00

====

Tested on: Sarcina lutea 8340
TEST: MIC against human bacteria in vitro
Type: cell-based
PROTOCOL_CONDITIONS: Micrococcus luteus; Sarcina lutea 8340; 5% chocolated horse blood agar, 18 hours; read-out: MIC
Exercise: state measured MIC for each of the compounds provided.

Using the record for `C/C(=C\c1ncc(-c2ccc(C=O)cc2)o1)C[C@@H]1OC[C@H](C[C@@H]2O[C@H]2[C@@H](C)[C@H](C)O)[C@@H](O)[C@H]1O` , report its MIC.
> 128 µg/mL

Using the record for `C/C(=C\c1ncc(-c2cccc(S(C)(=O)=O)c2)o1)C[C@@H]1OC[C@H](C[C@@H]2O[C@H]2[C@@H](C)[C@H](C)O)[C@@H](O)[C@H]1O` , report its MIC.
> 128 µg/mL

Using the record for `C/C(=C\c1ncc(-c2ccc([N+](=O)[O-])cc2)o1)C[C@@H]1OC[C@H](C[C@@H]2O[C@H]2[C@@H](C)[C@H](C)O)[C@@H](O)[C@H]1O` , report its MIC.
> 100 µg/mL

Using the record for `C/C(=C\c1ncc(-c2ccc(S(C)(=O)=O)cc2)o1)C[C@@H]1OC[C@H](C[C@@H]2O[C@H]2[C@@H](C)[C@H](C)O)[C@@H](O)[C@H]1O` , report its MIC.
> 128 µg/mL

Using the record for `COC(=O)c1ccc(-c2cnc(/C=C(\C)C[C@@H]3OC[C@H](C[C@@H]4O[C@H]4[C@@H](C)[C@H](C)O)[C@@H](O)[C@H]3O)o2)cc1` , report its MIC.
> 64 µg/mL

Using the record for `C/C(=C\c1ncc(Cc2ccccc2)o1)C[C@@H]1OC[C@H](C[C@@H]2O[C@H]2[C@@H](C)[C@H](C)O)[C@@H](O)[C@H]1O` , report its MIC.
> 64 µg/mL

====

Exercise: state measured MIC for each of the compounds provided.
System: Strep. spp. 64/848-C
TEST: MIC against human bacteria in vitro
Format: cell-based
PROTOCOL_CONDITIONS: 18 h
The reply should be a number in µg/mL, with the unit left off.

Using the record for `CSc1ccc(-c2cnc(/C=C(\C)C[C@@H]3OC[C@H](C[C@@H]4O[C@H]4[C@@H](C)[C@H](C)O)[C@@H](O)[C@H]3O)o2)cc1` , report its MIC.
5

Using the record for `C/C(=C\c1ncc(-c2ccc(CO)cc2)o1)C[C@@H]1OC[C@H](C[C@@H]2O[C@H]2[C@@H](C)[C@H](C)O)[C@@H](O)[C@H]1O` , report its MIC.
1

Using the record for `COC(=O)CCCCCCCc1cnc(/C=C(\C)C[C@@H]2OC[C@H](C[C@@H]3O[C@H]3[C@@H](C)[C@H](C)O)[C@@H](O)[C@H]2O)o1` , report its MIC.
10

====

Tested on: K. aerogenes A
TEST: MIC against human bacteria in vitro
Format: cell-based
PROTOCOL_CONDITIONS: Klebsiella aerogenes; K. aerogenes A; 5% chocolated horse blood agar, 18 hours; read-out: MIC
Exercise: state measured MIC for each of the compounds provided.

Using the record for `C/C(=C\c1ncc(-c2ccccc2[N+](=O)[O-])o1)C[C@@H]1OC[C@H](C[C@@H]2O[C@H]2[C@@H](C)[C@H](C)O)[C@@H](O)[C@H]1O` , report its MIC.
> 128 µg/mL

Using the record for `COc1ccc(-c2cnc(/C=C(\C)C[C@@H]3OC[C@H](C[C@@H]4O[C@H]4[C@@H](C)[C@H](C)O)[C@@H](O)[C@H]3O)o2)cc1` , report its MIC.
> 100 µg/mL

Using the record for `C/C(=C\c1cc(-c2ccccc2)on1)C[C@@H]1OC[C@H](C[C@@H]2O[C@H]2[C@@H](C)[C@H](C)O)[C@@H](O)[C@H]1O` , report its MIC.
> 128 µg/mL

Using the record for `C/C(=C\c1ncc(Cc2ccccc2)o1)C[C@@H]1OC[C@H](C[C@@H]2O[C@H]2[C@@H](C)[C@H](C)O)[C@@H](O)[C@H]1O` , report its MIC.
> 64 µg/mL

Using the record for `C/C(=C\c1ncc(-c2cccc(S(C)(=O)=O)c2)o1)C[C@@H]1OC[C@H](C[C@@H]2O[C@H]2[C@@H](C)[C@H](C)O)[C@@H](O)[C@H]1O` , report its MIC.
> 64 µg/mL

This collection of values is drawn from patent US5041567A.
